The origin of these recorded values is PubChem BioAssay AID624168.

- experimentNotes: compounds raising alpha-dystroglycan glycosylation – uHTS, Pro5-aDG cells, AlphaScreen, primary screen (AID 624168);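 note: Pro5 are CHO cells carrying HIG-tagged alpha-DG that lacks glycosylation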
- conditionContext: alpha-DG glycosylation AlphaScreen (IIH6), at 10 µM, hits give high values, 0% Pro5, 100% B10-LARGE cell signal
The campaign covered roughly 360,000 compounds. About 800 (0.22%) were called active. Many of the other results were omitted from the sample, so actives are more common in it than they were.
valueType: activation (%)

>>> recordednumber("O=C(c1ccc(N2CCCC2=O)cc1)N1CCN(c2ccc(C(F)(F)F)cc2[N+](=O)[O-])CC1")
7
>>> recordednumber("O=C(Cc1ccc(S(=O)(=O)N2CCOCC2)s1)N1CCN(c2ccc(C(F)(F)F)cc2[N+](=O)[O-])CC1")
0.7
>>> recordednumber("COc1cc(OC)cc(C(=O)NC(=S)N2CCN(c3ccc(C(F)(F)F)cc3[N+](=O)[O-])CC2)c1")
0.3
>>> recordednumber("COc1ccccc1C(=O)C(O)c1ccccc1OC (stereo not given)")
0.1
>>> recordednumber("COCCc1nn2c(=O)cc(COC(=O)c3cc(OC)c(OC)c(OC)c3)nc2s1")
-0.1
